The reported measurements were obtained from PubChem BioAssay.

System: F380Y
ASSAY OVERVIEW: modulators of BK channel variants, profiling panel, selectivity assay, cell-based, U2OS BacMam, thallium flux, beta subunits (AID 1259406);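 note: initial slope of Thallos dye fluorescence rise after thallium is added; log ratio against the mean of 0.3% DMSO vehicle wells on the same plate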
CONDITIONS USED: at 30 µM
MEASURE NAME: log fold change Tl+ flux
Respond using a number only.

Consider the following illustrative entries.
> print(dat)
                           substance.smiles  reported.result
1          COC(=O)Cc1cccc2c(=O)c3ccccc3oc12          0.00439
2  Cc1ccc(S(=O)(=O)NC(=O)Nc2nc(-c3ccc(C)c(Cl)c3)c(C)s2)cc1            0.099
3    O=C(O)c1ccccc1C(=O)NCc1ccccc1OC(F)(F)F            -0.05
4                  Cc1ccc(I)cc1[N+](=O)[O-]          0.00211
5     O=C(O)CC1(CC(=O)Nc2cccc3nsnc23)CCCCC1           0.0408
6                      CN1CCC[C@H]1c1cccnc1           0.0275
7  COc1ccc(C(=O)NNC(=O)c2c(OC)cc(C(F)(F)F)cc2C(F)(F)F)cc1            0.044
8                  COCCCNC(=O)C(C#N)=CN(C)C           -0.062

Continue with the compound presented below.
Query: I would be grateful if you could share the reported log fold change Tl+ flux for N#Cc1cc(-c2ccccc2)oc1NC(=O)c1cccs1 .
Response: -0.0586

---

Below, each entry is listed alongside its reported log fold change Tl+ flux.
Test system: R275C/beta2Delta
ASSAY OVERVIEW: modulators of BK channel variants, profiling panel, selectivity assay, cell-based, U2OS BacMam, thallium flux, beta subunits (AID 1259406);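 note: initial slope of Thallos dye fluorescence rise after thallium is added; log ratio against the mean of 0.3% DMSO vehicle wells on the same plate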
CONDITIONS USED: at 30 µM
Please give the numeric answer without any surrounding text.

Worked examples follow.
> print(dat)
                                   molecule  reported.result
1      COc1cc(NC(=S)Nc2cccc(C)n2)c(OC)cc1Cl           0.0321
2  COc1ccc(C(=O)NNC(=O)c2c(OC)cc(C(F)(F)F)cc2C(F)(F)F)cc1          0.00715
3  O=C(NCC1CC1)c1ccccc1NS(=O)(=O)c1cccc2nonc12           0.0268
4  CCC(=C(c1ccccc1)c1ccc(OCCN(C)C)cc1)c1ccccc1          -0.0428
5             O=C(O)Cc1ccc([N+](=O)[O-])cc1          0.00238

Query: Name the reported log fold change Tl+ flux value associated with the molecule CN1C2CCC1CC(OC(c1ccccc1)c1ccccc1)C2 (stereo not given)
Response: 0.0793

Query: Using the record for CCC[C@@H]1C[C@@H](C(=O)N[C@H]([C@@H](C)O)[C@H]2O[C@H](SC)[C@H](O)[C@@H](O)C2O)N(C)C1 (stereo not given in full) , report its log fold change Tl+ flux.
Response: -0.0468

Query: Which value of log fold change Tl+ flux has been reported for CCOC(=O)c1cc(CC)sc1NC(=O)C(Cl)(Cl)Cl in the records?
Response: 0.0214

Query: Need log fold change Tl+ flux of CCCCN1CCCC1CNC(=O)c1cc(C#N)c2ccccc2c1OC (stereo not given) , thanks.
Response: -0.085

Query: Can you look up the measured log fold change Tl+ flux of CCOC(=O)c1sc(SC)nc1N for me?
Response: -0.0273

---

ASSAY OVERVIEW: sensitizers of A549 cells to miR-34 induction, primary screen, imaging, A549 dox-inducible miR-34, nuclei and caspase counts (AID 1347080)
CONDITIONS USED: A549 miR-34 inducible, Hoechst nuclei count, 48 h; measured here: total cells without miR-34 induction
Assign class by cell count: not lower than 10000 means Satisfied; lower than 10000 means Not satisfied.

Query: Evaluate OC[C@@H](O)C(O[C@@H]1O[C@H](CO)[C@H](O)[C@H](O)[C@H]1O)[C@H](O)[C@@H](O)CO (stereo not given in full) : cell count at minimum 10000?
Response: Satisfied

Query: Hi, just wondering whether C[C@]12C=CC(=O)C=C1CCC1C2[C@@H](O)C[C@@]2(C)C1CC[C@]2(O)C(=O)COP(=O)(O)O (stereo not given in full) shows cell count of 10000 or higher.
Response: Not satisfied

Query: Can O=c1ncccn1[C@@H]1O[C@H](CO)[C@@H](O)[C@H]1O be said to have cell count at or above 10000?
Response: Not satisfied

Query: Textbook exercise: given the entry CC1CC2C3CCC4=CC(=O)C=CC4(C)C3(F)C(O)CC2(C)C1(O)C(=O)CO (stereo not given) , state whether its cell count is greater than or equal to 10000.
Response: Not satisfied

Query: Entry CC(C)(C)NC(=O)[C@H]1CCC2C3CCC4NC(=O)C=C[C@]4(C)C3CC[C@@]21C (stereo not given in full) : is its cell count no less than 10000?
Response: Satisfied

Query: Answer whether cell count of CCCCC(=O)O[C@H]1CCC2C3CCc4cc(O)ccc4C3CC[C@@]21C (stereo not given in full) is greater than or equal to 10000.
Response: Satisfied

Query: Is it the case that C[N+](C)(C)CCOP(=O)([O-])OP(=O)(O)OC[C@H]1OC(n2ccc(N)nc2=O)[C@H](O)[C@@H]1O (stereo not given in full) has cell count reaching or exceeding 10000?
Response: Satisfied

---

TARGET SYSTEM: Mitogen-activated protein kinase 7 (Homo sapiens) (UniProt Q13164)
Sequence (Q13164 whole entry, looked up, the tested form may be a part): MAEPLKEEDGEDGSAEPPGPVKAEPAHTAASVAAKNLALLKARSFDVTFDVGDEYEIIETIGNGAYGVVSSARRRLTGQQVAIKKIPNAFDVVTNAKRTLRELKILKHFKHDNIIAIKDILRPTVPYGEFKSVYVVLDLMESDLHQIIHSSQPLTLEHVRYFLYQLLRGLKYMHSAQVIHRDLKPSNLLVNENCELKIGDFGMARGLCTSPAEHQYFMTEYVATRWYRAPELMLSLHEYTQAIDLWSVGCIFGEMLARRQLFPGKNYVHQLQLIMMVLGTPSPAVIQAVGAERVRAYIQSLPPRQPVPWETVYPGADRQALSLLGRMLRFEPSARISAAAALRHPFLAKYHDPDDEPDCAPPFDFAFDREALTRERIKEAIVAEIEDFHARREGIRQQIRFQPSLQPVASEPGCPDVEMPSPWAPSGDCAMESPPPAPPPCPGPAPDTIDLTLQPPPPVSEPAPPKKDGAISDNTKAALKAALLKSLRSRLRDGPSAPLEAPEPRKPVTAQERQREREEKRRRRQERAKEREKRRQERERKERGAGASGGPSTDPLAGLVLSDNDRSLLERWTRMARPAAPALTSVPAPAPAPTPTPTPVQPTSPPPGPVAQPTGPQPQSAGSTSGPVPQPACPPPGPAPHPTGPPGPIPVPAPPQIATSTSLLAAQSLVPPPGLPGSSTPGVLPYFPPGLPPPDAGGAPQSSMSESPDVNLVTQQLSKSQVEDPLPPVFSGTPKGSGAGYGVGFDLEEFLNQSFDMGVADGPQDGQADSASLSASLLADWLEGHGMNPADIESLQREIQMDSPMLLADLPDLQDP
ASSAY OVERVIEW: ERK5 transactivation activators in reporter cells, primary screen, cell-based, HTS (AID 1508626);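 note: luciferase driven by Gal4-ERK5 fusion binding five Gal4 sites before minimal TATA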
CONDITIONS USED: HeLa Gal4-ERK5 transactivation, 18 h, at 5 µM, stronger effect = higher value
Calls of active or inactive are those of the source.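 The calls were made as follows: active = luciferase signal above three times the same-plate solvent-only control wells; inactive = the rest.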
MEASURE NAME: luciferase signal

COMPOUND	REPORTED RESULT
OC[C@H]1O[C@H](O[C@]2(CCl)O[C@H](CCl)[C@@H](O)[C@@H]2O)[C@H](O)[C@@H](O)[C@H]1Cl	68 AU (inactive)

Query: For COc1ccc2c(c1)O[C@H]1c3ccc(OC)cc3OC[C@@H]21 , what is its reported luciferase signal?
Response: 68 AU (inactive)

Query: Quick check: luciferase signal of CNC(C)[C@@H]1CC[C@@H](N)[C@@H](OC2[C@@H](N)C[C@@H](N)[C@H](OC3OC[C@](C)(O)[C@H](NC)[C@H]3O)[C@H]2O)O1 (stereo not given in full) ?
Response: 28 AU (inactive)

Query: If you can, please state the reported luciferase signal value of CC(=O)O[C@@H]1CC2C(C)(C)[C@H](O)C=C[C@]2(C)C2CC[C@@]3(C)[C@H](c4ccoc4)OC(=O)C4OC43[C@@]21C (stereo not given in full) .
Response: 56 AU (inactive)

Query: // lookup luciferase signal for O=C(O)c1ccc2c(c1)OCO2
Response: 48 AU (inactive)

---

Tested on: F380Y/beta2Delta
ASSAY OVERVIEW: modulators of BK channel variants, profiling panel, selectivity assay, cell-based, U2OS BacMam, thallium flux, beta subunits (AID 1259406);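 note: initial slope of Thallos dye fluorescence rise after thallium is added; log ratio against the mean of 0.3% DMSO vehicle wells on the same plate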
CONDITIONS USED: at 30 µM
Calls of active or inactive are those of the source.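 How the source made its calls: active means thallium flux through the channel raised or lowered by more than 3 SD from vehicle-only wells, actives on both sides; inactive means the rest.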
Choose one outcome from this list and give only that: TRUE (active), FALSE (inactive)

Use the examples below as a reference point.
COMPOUND	TARGET SYSTEM	CLASS NAME
CC(c1ccccc1)n1c(SCc2cc(=O)oc3cc(O)ccc23)n[nH]c1=O (stereo not given)	F380Y/beta2Delta	FALSE
Cn1c(C(F)(F)F)nnc1S(=O)(=O)Cc1ccc(-c2csnn2)cc1	F380Y/beta2Delta	FALSE
CC1(C)SC2C(NC(=O)Cc3ccccc3)C(=O)N2C1C(=O)O (stereo not given)	F380Y/beta2Delta	FALSE
Cn1c(C(=O)O)ccc1S(=O)(=O)N(Cc1ccccc1)Cc1ccccc1	F380Y/beta2Delta	FALSE
CC(=CCC1=C(C)C(=O)c2ccccc2C1=O)CCCC(C)CCCC(C)CCCC(C)C (stereo not given)	F380Y/beta2Delta	FALSE

Query: Hi, do you know how CSc1nc(C=Nc2cccc(Cl)c2)c(O)n1Cc1cccc(Cl)c1 came out in this test?
Response: FALSE

Query: What is the recorded call for this compound in the test? C#CC1(NC(=O)c2ccc(-c3ccc(CC)cc3)cc2)CCCCC1
Response: FALSE

Query: Please let me know the test result on file for O=C(CNc1cc(C(F)(F)F)cc(C(F)(F)F)c1)c1ccc(Cl)cc1 .
Response: FALSE

Query: Which outcome was entered for the compound CC1(C)CC(=O)C=C(NCCCCCCCCNC2=CC(=O)CC(C)(C)C2)C1 in this test?
Response: FALSE

Query: What did this assay record as the result for CN(C)CC/C=C1/c2ccccc2COc2ccccc21 ?
Response: TRUE

Query: Just curious, what result did COC(=O)Nc1nc2ccc(C(=O)c3ccc(F)cc3)cc2[nH]1 get here?
Response: FALSE
